Provenance of the data: PubChem BioAssay (Tox21)

target: Cytochrome P450 2D6 (Homo sapiens) (UniProt P10635); assay: Cytochrome P450 Family 2 Subfamily D Member 6 (CYP2D6) small molecule antagonists: luciferase reporter qHTS assay (AID 1671196); details: P450-Glo CYP2D6 enzyme assay, luciferin luminescence, 1 h; series mostly up to 115 µM; also: nearly all actives have a fitted effect of over 50% in size
Sequence (P10635 whole entry, looked up): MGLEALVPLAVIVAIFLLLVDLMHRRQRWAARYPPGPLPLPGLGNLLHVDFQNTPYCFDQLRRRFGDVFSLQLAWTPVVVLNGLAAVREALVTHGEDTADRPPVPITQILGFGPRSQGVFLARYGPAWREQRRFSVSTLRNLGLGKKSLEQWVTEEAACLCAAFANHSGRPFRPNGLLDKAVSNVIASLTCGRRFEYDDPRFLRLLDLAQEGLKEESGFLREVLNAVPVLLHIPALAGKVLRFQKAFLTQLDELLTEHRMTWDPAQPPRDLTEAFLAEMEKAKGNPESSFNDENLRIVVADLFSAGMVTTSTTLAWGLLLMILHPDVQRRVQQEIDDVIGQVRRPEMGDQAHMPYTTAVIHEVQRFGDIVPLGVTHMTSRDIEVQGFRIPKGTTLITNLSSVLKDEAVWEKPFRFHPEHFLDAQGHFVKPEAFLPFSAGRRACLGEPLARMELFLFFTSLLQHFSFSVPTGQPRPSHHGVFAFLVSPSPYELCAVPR
Inconclusive results are not listed. The source made the active and inactive calls. Calls follow the shape of the dose curve; as a rule, active = well fitted inhibition curve with a large enough effect in the repeat runs; inconclusive = weak or mixed curves; inactive = no such curve, though single readings can be large or run the other way.
Measure name: outcome

Example entries begin here.
CC(C)(c1cc(Cl)c(O)c(Cl)c1)c1cc(Cl)c(O)c(Cl)c1    inactive
CCN(N=O)C(N)=O    inactive
NNC(N)=S    inactive
C=C(C)C(=O)OCC1CO1 (stereo not given)    inactive
CC(C)Oc1cc(-n2nc(C(C)(C)C)oc2=O)c(Cl)cc1Cl    inactive

[ask] Look up outcome: "CC(C)NC(C)C"
[reply] inactive

[ask] Look up outcome: CC1(C)C(C=C(Cl)Cl)C1C(=O)OC(C#N)c1cccc(Oc2ccccc2)c1 (stereo not given)
[reply] inactive

[ask] Look up outcome: CCCCC(CC)COC(=O)Cl (stereo not given)
[reply] inactive

[ask] Look up outcome: "Oc1cc(Cl)ccc1Oc1ccc(Cl)cc1Cl"
[reply] inactive

[ask] Look up outcome: "CNC(=O)N(C)c1nnc(C(C)(C)C)s1"
[reply] inactive

[ask] Look up outcome: "O=[N+]([O-])c1ccc(O)c([N+](=O)[O-])c1"
[reply] inactive

[ask] Look up outcome: "COc1ccc(C=O)cc1"
[reply] inactive

[ask] Look up outcome: "CC(C)N(C(=O)SCC(Cl)=C(Cl)Cl)C(C)C"
[reply] inactive

[ask] Look up outcome: "Oc1cc(Cl)ccc1Cl"
[reply] inactive

[ask] Look up outcome: "Nc1ccncc1"
[reply] inactive
